These measurements were taken from patent US20150361164A1.

- assaySystem: T1, bovine thymus-derived HMGB1 (bovine, UniProt P10103 2-215)
- T1 construct: Bought protein from tissue
- T1 sequence (looked up): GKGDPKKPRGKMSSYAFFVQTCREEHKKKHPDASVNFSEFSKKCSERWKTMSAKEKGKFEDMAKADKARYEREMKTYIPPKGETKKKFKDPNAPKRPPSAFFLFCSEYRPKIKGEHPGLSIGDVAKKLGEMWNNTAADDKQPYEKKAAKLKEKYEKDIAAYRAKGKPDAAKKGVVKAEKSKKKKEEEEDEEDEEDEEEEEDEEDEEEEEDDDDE
- assayNotes: ELISA on HMGB1-immobilized immunoplate, antibodies adjusted to an equal concentration; OD as % of EV007156 (L) + #10-22 chimera (H) (source of the HMGB1 not named for this figure)
valueKind: binding result

1. P41S (antibody, human IgG1, lambda, V domains shown, co-expressed with EV007156L in CHO-K1 cells; also called #10-22 chimeric antibody (H chain) site substitution variant P41S; copies: 2 + 2) VH: AVQLVESGGGLVQPKESLKISCAASGFTFSNAAMYWVRQASGKGLEWVARIRTKPNNYATYYADSVKGRFTISRDDSKSMVYLQMDNLKTEDTAMYYCTAPRRTEGIVSSGVDYWGQGVMVTVSS VL: YELTQPPSVSVSPGQTASITCSGDELPKRYAYWYQQKPGQSIVRVIYKDSERPSGIPERFSGSSSGTTATLTISGTQAEDEADYYCHSTYSDDKLPVFGGGTKLTVLG; binds
2. V78A (antibody, human IgG1, lambda, V domains shown, co-expressed with EV007156L in CHO-K1 cells; also called #10-22 chimeric antibody (H chain) site substitution variant V78A; copies: 2 + 2) VH: AVQLVESGGGLVQPKESLKISCAASGFTFSNAAMYWVRQAPGKGLEWVARIRTKPNNYATYYADSVKGRFTISRDDSKSMAYLQMDNLKTEDTAMYYCTAPRRTEGIVSSGVDYWGQGVMVTVSS VL: YELTQPPSVSVSPGQTASITCSGDELPKRYAYWYQQKPGQSIVRVIYKDSERPSGIPERFSGSSSGTTATLTISGTQAEDEADYYCHSTYSDDKLPVFGGGTKLTVLG; binds
3. S76N (antibody, human IgG1, lambda, V domains shown, co-expressed with EV007156L in CHO-K1 cells; also called #10-22 chimeric antibody (H chain) site substitution variant S76N; copies: 2 + 2) VH: AVQLVESGGGLVQPKESLKISCAASGFTFSNAAMYWVRQAPGKGLEWVARIRTKPNNYATYYADSVKGRFTISRDDSKNMVYLQMDNLKTEDTAMYYCTAPRRTEGIVSSGVDYWGQGVMVTVSS VL: YELTQPPSVSVSPGQTASITCSGDELPKRYAYWYQQKPGQSIVRVIYKDSERPSGIPERFSGSSSGTTATLTISGTQAEDEADYYCHSTYSDDKLPVFGGGTKLTVLG; binds
